For each of the molecules below, state its cytotoxicity at 70.5 h.
experiment: Human HepG2 cell viability assay in 384 well format; type: toxicity, cell-based; design: dose 125 nL, time 70.5 hour; concentration not given beside the values; settings: HepG2 cells, read-out: Inhibition
# value in %; strip the unit string

Provide one value: measured cytotoxicity at 70.5 h of CN(C)CCn1c2c(ccc1=O)CCN(Cc1cnn(C)c1)CC2
2.16

Write down cytotoxicity at 70.5 h measured for item Cc1cnn(CC2CCCCN2Cc2nc(-c3ccoc3)no2)c1 (configuration not stated)
-6.01

Give cytotoxicity at 70.5 h for the following molecule: Fc1ccc(CN2CCC3(CCN(Cc4nccs4)CC3)C2)cc1
-0.695

Please give measured cytotoxicity at 70.5 h of the following entry: CCN1C(=O)[C@H]2CN(CC(C)C)C[C@H]2C12CCN(S(C)(=O)=O)CC2
-6.33

// Input: OC1CCCN(Cc2ccnc(-c3cccnc3)n2)C1 (configuration not stated) . Output its cytotoxicity at 70.5 h only.
-4.64

Please supply the value of reported cytotoxicity at 70.5 h for the item CN(Cc1ccc(Cl)c(F)c1)C(=O)CCc1ccncc1
-6.42

State its cytotoxicity at 70.5 h for this molecule: CN(C)C(=O)c1nc(CN2CC(Cc3ccccc3)CC2=O)no1 (configuration not stated)
-2.6

Provide measured cytotoxicity at 70.5 h value, entry: COc1ccccc1CCN[C@@H]1c2ccccc2C2(CCNCC2)[C@H]1O
-4.74

Output measured cytotoxicity at 70.5 h for this item: Cc1cc(CNC2CCc3nc(C(C)C)nn3C2)on1 (configuration not stated)
-5.91

Please look at this molecule and report its cytotoxicity at 70.5 h: CCCN(CCO)C(=O)C1CCC(=O)N(CCc2ccc(Cl)cc2)C1 (configuration not stated)
-4.6

Fill in reported cytotoxicity at 70.5 h for this entry: CN(C)[C@@H]1CN(Cc2ccccn2)C[C@H]1c1cn(C)c2ccccc12
12

Return reported cytotoxicity at 70.5 h. Input molecule: c1cncc(-c2ccc3c(c2)CCC32CCN(Cc3nccs3)CC2)c1
-2.27

----------
assay: Human HepG2 cell viability assay in 384 well format; type: toxicity, cell-based; design: dose 125 nL, time 70.5 hour; concentration not given beside the values; details: HepG2 cells, read-out: Inhibition
readout name: cytotoxicity at 70.5 h
Answer with the number, then the unit.

Tell me its cytotoxicity at 70.5 h given CCOc1cccc(C(=O)Nc2ccncc2)c1 as the entry.
-8.85%

// Input: O=C1CC2(CCN(C(=O)c3ccc4c(c3)CCCO4)C2)C(=O)N1 (stereo not drawn) . Output its cytotoxicity at 70.5 h only.
2.37%

Indicate the recorded cytotoxicity at 70.5 h value for this compound: CCn1c(CN2CCN(C(=O)C3CCC3)CC2)nc2c(F)cccc21
1.75%

Supply reported cytotoxicity at 70.5 h belonging to this compound: Cc1nc(C)c(CN2CCOC(Cc3ccccc3Cl)C2)nc1C (stereo not drawn)
-2.34%

Return cytotoxicity at 70.5 h for the following compound: COc1ccnc(NC(=O)c2cscn2)c1
-10.4%

Given CCn1ncc2c1CCCC2NCc1ccc(OC)c(C)c1 (stereo not drawn) , respond with its cytotoxicity at 70.5 h.
33.6%

For CN(Cc1ccc(F)cc1)S(=O)(=O)N1CCOCC1 , write its cytotoxicity at 70.5 h.
6.44%

For COc1cccc(OCCn2c(C)c(C)oc2=O)c1 , write its cytotoxicity at 70.5 h.
0.585%
